Test system: HT-29
Assay: Cytotoxicity against human HT-29 cells assessed as cell growth inhibition after 48 hrs by MTT assay
Assay type: functional, cell-based
Conditions: HT-29, 48 h
Measured property: pIC50
Scale: pIC50 equals -log10([C]), with [C] in mol/L.

Take a look at these entries with their results.
Molecule	System	pIC50
COc1cc2c3c(c4cc(OC)c(OC)cc4c2cc1OC)C(c1cccc(C(F)(F)F)c1)CC(=O)N3 (centres undefined)	HT-29	4.73
COc1cc2c3c(c4cc(OC)c(OC)cc4c2cc1OC)C(c1ccc(Br)cc1)CC(=O)N3 (centres undefined)	HT-29	4.81
COc1cc2c3c(c4cc(OC)c(OC)cc4c2cc1OC)C(c1ccc(F)cc1)CC(=O)N3 (centres undefined)	HT-29	4.76
COc1cc2c3c(c4cc(OC)c(OC)cc4c2cc1OC)C(c1cccc2ccccc12)CC(=O)N3 (centres undefined)	HT-29	4.74

Consider the molecule COc1cc2c3c(c4cc(OC)c(OC)cc4c2cc1OC)C(c1ccc(C(C)C)cc1)CC(=O)N3 (centres undefined) tested on HT-29; state its pIC50.
4.80

Consider the molecule COc1cc2c3c(c4cc(OC)c(OC)cc4c2cc1OC)C(c1ccc(O)c(O)c1)CC(=O)N3 (centres undefined) tested on HT-29; state its pIC50.
4.99

Consider the molecule COc1ccc(C2CC(=O)Nc3c2c2cc(OC)c(OC)cc2c2cc(OC)c(OC)cc32)cc1OC (centres undefined) tested on HT-29; state its pIC50.
4.91

Consider the molecule COc1cc2c3c(c4cc(OC)c(OC)cc4c2cc1OC)C(c1ccc(F)c(F)c1)CC(=O)N3 (centres undefined) tested on HT-29; state its pIC50.
4.75

====

System: HCT-116
Assay: Cytotoxicity against human HCT116 cells assessed as cell growth inhibition after 48 hrs by MTT assay
Type: functional, cell-based
Conditions: HCT-116, 48 h
Measured property: pIC50
Scale: pIC50 equals -log10([C]), with [C] in mol/L.

Take a look at these entries with their results.
Molecule	Measured property	Val
COc1cc2c3c(c4cc(OC)c(OC)cc4c2cc1OC)C(c1cccs1)CC(=O)N3 (centres undefined)	pIC50	4.86
COc1cc2c3c(c4cc(OC)c(OC)cc4c2cc1OC)C(c1ccc(Cl)cc1)CC(=O)N3 (centres undefined)	pIC50	4.85

Consider the molecule COc1cc2c3c(c4cc(OC)c(OC)cc4c2cc1OC)C(c1ccc(Br)cc1)CC(=O)N3 (centres undefined) tested on HCT-116; state its pIC50.
4.78

Consider the molecule COc1ccc(C2CC(=O)Nc3c2c2cc(OC)c(OC)cc2c2cc(OC)c(OC)cc32)cc1OC (centres undefined) tested on HCT-116; state its pIC50.
5.09

Consider the molecule COc1cc2c3c(c4cc(OC)c(OC)cc4c2cc1OC)C(c1ccc(O)c(O)c1)CC(=O)N3 (centres undefined) tested on HCT-116; state its pIC50.
4.90

Consider the molecule COc1cc2c3c(c4cc(OC)c(OC)cc4c2cc1OC)C(c1ccc(F)cc1)CC(=O)N3 (centres undefined) tested on HCT-116; state its pIC50.
4.79

Consider the molecule COc1cc2c3c(c4cc(OC)c(OC)cc4c2cc1OC)C(c1ccc(F)c(F)c1)CC(=O)N3 (centres undefined) tested on HCT-116; state its pIC50.
4.87
